- TESTED ON: Adenosine A2 receptor (Homo sapiens, UniProt P29275+P29274)
Entries and their log10 of Ki
ASSAY METRIC: log10 of Ki (log10 of the value in µM)

| COMPOUND | log10 of Ki |
| --- | --- |
| COC(=O)c1ccc(-c2nc3c(c(=O)n(C)c(=O)n3C)n2C)cc1 | 1.40 |
| CCCn1c(=O)[nH]c(=O)c2[nH]c(-c3ccccc3)nc21 | 1.04 |
| CCCn1c(=O)c2c(nc(-c3ccccc3)n2C)n(CCC)c1=O | 0.38 |
| Cn1c(=O)[nH]c2[nH]cnc2c1=O [1-METHYLXANTHINE] | 0.28 |
| CC(C)CCn1c(=O)c2nc(-c3ccc(S(=O)(=O)O)cc3)[nH]c2n(CC(C)C)c1=O | -0.28 |
| Cn1c(=O)c2c(nc(-c3ccccc3)n2C)n(C)c1=O | 1.15 |
| CCCn1c(=O)[nH]c(=O)c2[nH]c(C3CCCCC3)nc21 | 0.04 |
| Cn1c(=O)c2c(nc(C3CCCC3)n2C)n(C)c1=O | 0.38 |
| Cn1c(=O)[nH]c2[nH]c(-c3ccccc3)nc2c1=O | -0.07 |
| Cn1c(=O)c2c(nc(-c3ccc(S(=O)(=O)O)cc3)n2C)n(C)c1=O | 1.76 |
| CCCn1c(=O)[nH]c(=O)c2[nH]c(-c3ccc(C(=O)O)cc3)nc21 | 1.15 |

----------
- TESTED ON: Adenosine receptor A1 (Rattus norvegicus, UniProt P25099)
- Sequence (P25099 whole entry): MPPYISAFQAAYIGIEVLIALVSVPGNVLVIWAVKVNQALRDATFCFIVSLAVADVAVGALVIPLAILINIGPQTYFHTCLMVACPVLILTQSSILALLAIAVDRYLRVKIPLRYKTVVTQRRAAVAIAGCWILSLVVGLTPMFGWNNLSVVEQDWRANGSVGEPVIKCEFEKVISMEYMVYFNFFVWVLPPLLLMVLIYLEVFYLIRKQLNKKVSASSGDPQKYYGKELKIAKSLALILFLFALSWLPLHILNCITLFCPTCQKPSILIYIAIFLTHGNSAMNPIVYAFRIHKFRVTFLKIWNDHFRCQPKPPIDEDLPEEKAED
- PROTOCOL SUMMARY: Inhibition of N6-(phenylisopropyl)adenosine-elicited inhibition of adenylate cyclase at A1 adenosine receptor in rat fat cell membrane
ASSAY METRIC: Ki (nM)

| SMI | ASSAY RESULT |
| --- | --- |
| Cn1c(=O)[nH]c2[nH]c(-c3ccccc3)nc2c1=O | 130 |

Measured values drawn from ChEMBL document CHEMBL1124484 for this set.
